test system: CP201; assay: qHTS profiling for inhibitors of Plasmodium falciparum proliferation (AID 504749); note: nearly all actives have a fitted effect of over 60% in size; settings: P. falciparum in erythrocytes, SYBR Green DNA, 72 h; series mostly up to 28.7 µM
Inconclusive results are not listed. Active and inactive are the calls of the source. Calls come from the whole dose curve; as a rule, active = well fitted inhibition curve with a large enough effect; inconclusive = small, poorly fitted or top-dose-only effect; inactive = flat fitted curve, though single readings scatter.
Labels: active, inactive

{"Compound": "O=C(c1ccc(F)cc1)C1CCN(CCn2c(=O)[nH]c3ccccc3c2=O)CC1", "Discrete label": "inactive"}
{"Compound": "COc1nc(C)nc(Cl)c1NC1=NCCN1", "Discrete label": "inactive"}
{"Compound": "CCOC(=O)c1ncn2c1CN(C)C(=O)c1cc(F)ccc1-2", "Discrete label": "inactive"}
{"Compound": "COc1ccc2[nH]cc(CCNC(C)=O)c2c1", "Discrete label": "inactive"}
{"Compound": "Clc1ccc2c(c1)C(N1CCNCC1)=Nc1ccccc1O2", "Discrete label": "inactive"}
{"Compound": "Nc1nc2c(ncn2COC(CO)CO)c(=O)[nH]1", "Discrete label": "inactive"}
{"Compound": "CN(Cc1cnc2nc(N)nc(N)c2n1)c1ccc(C(=O)N[C@@H](CCC(=O)O)C(=O)O)cc1", "Discrete label": "inactive"}
{"Compound": "CC(=O)OCC(CCn1cnc2cnc(N)nc21)COC(C)=O", "Discrete label": "inactive"}
{"Compound": "CC(CCc1ccc(O)cc1)NCCc1ccc(O)c(O)c1 (stereo not given)", "Discrete label": "inactive"}
{"Compound": "Nc1c2c(nc3ccccc13)CCCC2", "Discrete label": "inactive"}
{"Compound": "COC(=O)Nc1nc2ccc(C(=O)c3cccs3)cc2[nH]1", "Discrete label": "inactive"}
{"Compound": "C[C@](N)(Cc1ccc(O)c(O)c1)C(=O)O", "Discrete label": "inactive"}
{"Compound": "Clc1ccccc1C(c1ccccc1)(c1ccccc1)n1ccnc1", "Discrete label": "active"}
{"Compound": "CNCCCC12CCC(c3ccccc31)c1ccccc12", "Discrete label": "inactive"}
{"Compound": "CCC1(c2ccccc2)C(=O)NCNC1=O", "Discrete label": "inactive"}
{"Compound": "CC#C[C@]1(O)CC[C@H]2[C@@H]3CCC4=CC(=O)CCC4=C3[C@@H](c3ccc(N(C)C)cc3)C[C@@]21C", "Discrete label": "active"}
{"Compound": "CS(=O)(=O)CCNCc1ccc(-c2ccc3ncnc(Nc4ccc(OCc5cccc(F)c5)c(Cl)c4)c3c2)o1", "Discrete label": "inactive"}
{"Compound": "N[C@@H](Cc1c[nH]c2ccc(O)cc12)C(=O)O", "Discrete label": "inactive"}
{"Compound": "OCCN1CCN(CCCN2c3ccccc3Sc3ccc(C(F)(F)F)cc32)CC1", "Discrete label": "active"}
{"Compound": "CN(C)CCOC(c1ccccc1)c1ccccc1", "Discrete label": "inactive"}
{"Compound": "CCCNCC(O)COc1ccccc1C(=O)CCc1ccccc1 (stereo not given)", "Discrete label": "active"}
{"Compound": "CC(COc1ccccc1)N(CCCl)Cc1ccccc1 (stereo not given)", "Discrete label": "inactive"}
{"Compound": "CC(C)Cc1ccc(C(C)C(=O)O)cc1 (stereo not given)", "Discrete label": "inactive"}
{"Compound": "Clc1ccc2nsnc2c1NC1=NCCN1", "Discrete label": "inactive"}
{"Compound": "COc1ccccc1OCCNCC(O)COc1cccc2[nH]c3ccccc3c12 (stereo not given)", "Discrete label": "inactive"}

====

Experiment: Quantitative High-Throughput drug screen in 47 multiple myeloma cell lines against the NCATS MIPE library collection: KMS20_JCRB cell viability assay (AID 1918973); note: nearly all actives have a fitted effect of over 45% in size; note: potency is the fitted concentration of half-maximal effect
Details: CellTiter-Glo ATP, 48 h; series mostly up to 45.8 µM
Excerpt: PI: Beverly A. Mock Ph.D. Laboratory of Cancer Biology and Genetics, Center for Cancer Research, National Cancer Institute, National Institute of Health, Bethesda, Maryland […] 5; Detector; 425V; Luminescence; Viewlux PerkinElmer. […] 1. […] Briefly, the corresponding myeloma cell lines were screened in 1,536-well plates with 500 cells, 5-uL per well for inhibition of cell viability (assessed by measuring ATP levels with CellTiterGlo). […]
Results filed as inconclusive are left out. Activity calls are given as the source filed them. The call rests on the fitted dose curve; in most records, active means well fitted cell-killing curve with a large enough effect; inconclusive means small, poorly fitted or top-dose-only effect, or effect the other way; inactive means no such curve, though single readings can be large or run the other way.

{"Compound": "CN(C)CCOC(c1ccccc1)c1ccccc1", "Potency": "18.7 µM (active)"}
{"Compound": "O=C(C1CCCCC1)N1CC(=O)N2CCc3ccccc3C2C1 (stereo not drawn)", "Potency": "inactive"}
{"Compound": "CC(CCc1ccc(O)cc1)NCCc1ccc(O)c(O)c1 (stereo not drawn)", "Potency": "inactive"}
{"Compound": "NC(=O)OCC(COC(N)=O)c1ccccc1", "Potency": "inactive"}
{"Compound": "NCCS(=O)(=O)O", "Potency": "inactive"}
{"Compound": "COc1ccc2[nH]cc(CCNC(C)=O)c2c1", "Potency": "inactive"}
{"Compound": "O=C(c1ccc(OCCN2CCCCC2)cc1)c1c(-c2ccc(O)cc2)sc2cc(O)ccc12", "Potency": "16.6 µM (active)"}
{"Compound": "CN1C2CCC1CC(OC(=O)C(CO)c1ccccc1)C2 (stereo not drawn)", "Potency": "inactive"}
{"Compound": "CNCCCC12CCC(c3ccccc31)c1ccccc12", "Potency": "13.2 µM (active)"}
{"Compound": "COc1ccccc1OCC(O)CN1CCN(CC(=O)Nc2c(C)cccc2C)CC1 (stereo not drawn)", "Potency": "inactive"}
{"Compound": "NC(=O)NO", "Potency": "0.0935 µM (active)"}
{"Compound": "CN(C)c1nc(N(C)C)nc(N(C)C)n1", "Potency": "inactive"}
{"Compound": "CN1CCN(CCCN2c3ccccc3Sc3ccc(Cl)cc32)CC1", "Potency": "8.33 µM (active)"}

====

experiment: qHTS for differential inhibitors of proliferation of Plasmodium falciparum line W2 (AID 1883); conditions: Plasmodium falciparum W2 proliferation inhibition; series mostly up to 28.7 µM;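 note: parasites grown with compound for 72 h before lysis and staining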
Inconclusive results are not listed. Active and inactive are the calls of the source. Calls follow the shape of the dose curve; as a rule, active = well fitted curve in the direction sought with a large enough effect; inconclusive = small, poorly fitted or top-dose-only effect, or another doubt; inactive = no such curve, though single readings can be large or run the other way.
Outcomes: YES for active, NO for inactive

{"Molecule": "CCOC(=O)c1ncn2c1CN(C)C(=O)c1cc(F)ccc1-2", "Discrete label": "NO"}
{"Molecule": "CCC1(C)CC(=O)NC1=O (stereo not given)", "Discrete label": "NO"}
{"Molecule": "NC(=O)NO", "Discrete label": "NO"}
{"Molecule": "O=C(c1ccc(F)cc1)C1CCN(CCn2c(=O)[nH]c3ccccc3c2=O)CC1", "Discrete label": "YES"}
{"Molecule": "CCOC(=O)C(C)(C)Oc1ccc(Cl)cc1", "Discrete label": "NO"}
{"Molecule": "Cn1c(=O)c2c(ncn2C)n(C)c1=O", "Discrete label": "NO"}
{"Molecule": "CCOC(=O)Nc1ccc(NCc2ccc(F)cc2)nc1N", "Discrete label": "YES"}
{"Molecule": "CNCCCC12CCC(c3ccccc31)c1ccccc12", "Discrete label": "YES"}
{"Molecule": "COc1ccccc1N1CCN(CC(O)COc2cccc3ccccc23)CC1 (stereo not given)", "Discrete label": "YES"}
{"Molecule": "O=C(Nc1ccc([N+](=O)[O-])cc1Cl)c1cc(Cl)ccc1O", "Discrete label": "YES"}
{"Molecule": "CN1CCN(CCCN2c3ccccc3Sc3ccc(Cl)cc32)CC1", "Discrete label": "YES"}
{"Molecule": "CCCNCC(O)COc1ccccc1C(=O)CCc1ccccc1 (stereo not given)", "Discrete label": "YES"}
{"Molecule": "CN1CCC(=C2c3ccccc3C=Cc3ccccc32)CC1", "Discrete label": "YES"}
{"Molecule": "CC1COc2c(N3CCN(C)CC3)c(F)cc3c(=O)c(C(=O)O)cn1c23 (stereo not given)", "Discrete label": "YES"}
{"Molecule": "CN(C)CCCN1c2ccccc2CCc2ccc(Cl)cc21", "Discrete label": "YES"}
{"Molecule": "OCCN(CCO)c1nc(N2CCCCC2)c2nc(N(CCO)CCO)nc(N3CCCCC3)c2n1", "Discrete label": "YES"}
{"Molecule": "CN(C)c1nc(N(C)C)nc(N(C)C)n1", "Discrete label": "NO"}
{"Molecule": "Nc1nnc(-c2cccc(Cl)c2Cl)c(N)n1", "Discrete label": "NO"}
{"Molecule": "COc1cc2nc(N3CCN(C(=O)C4COc5ccccc5O4)CC3)nc(N)c2cc1OC (stereo not given)", "Discrete label": "YES"}
{"Molecule": "CN1CCC(=C2c3ccccc3CC(=O)c3sccc32)CC1", "Discrete label": "YES"}
{"Molecule": "CC(C)NCC(O)COc1ccc(CCOCC2CC2)cc1 (stereo not given)", "Discrete label": "YES"}
{"Molecule": "COc1cc2nc(N3CCN(C(=O)c4ccco4)CC3)nc(N)c2cc1OC", "Discrete label": "YES"}
{"Molecule": "CC12CC3CC(C)(C1)CC(N)(C3)C2", "Discrete label": "YES"}
{"Molecule": "CN1C(C(=O)Nc2ccccn2)=C(O)c2ccccc2S1(=O)=O", "Discrete label": "YES"}
{"Molecule": "CCCCc1oc2ccccc2c1C(=O)c1cc(I)c(OCCN(CC)CC)c(I)c1", "Discrete label": "YES"}
